src = ChEMBL document CHEMBL1156583

- Assay notes: Half life in Sprague-Dawley rat at 2.5 mg/kg, iv
- Format: ADME, organism-based
- Set-up: dose 2.5 mg/kg, route intravenous
- Recorded conditions: in vivo
half-life of 5 h or higher: True. Under 5 h: False.

[ask] Does half-life meet or surpass 5 h for "Cc1c(-c2cccc(OCCCCC(=O)O)c2)c(=O)n(C[C@H](N)c2ccccc2)c(=O)n1Cc1c(F)cccc1C(F)(F)F" ?
[reply] True

[ask] Is the recorded value of half-life equal to or greater than 5 h for this molecule? "Cc1c(-c2cccc(OCCCCC(=O)O)c2F)c(=O)n(C[C@H](N)c2ccccc2)c(=O)n1Cc1c(F)cccc1C(F)(F)F"
[reply] True

[ask] State whether the measured half-life reaches 5 h, counting equality as reaching it, for "Cc1c(-c2cccc(OCCCCCC(=O)O)c2F)c(=O)n(C[C@H](N)c2ccccc2)c(=O)n1Cc1c(F)cccc1C(F)(F)F"
[reply] False
